Kindly state pEC50 for each of the entries shown.
# ASSAYED SYSTEM: T1, human nectin-4 on cells (human, UniProt Q96NY8 32-510)
# T1 construct: also called Nectin-4 receptor
# T1 sequence: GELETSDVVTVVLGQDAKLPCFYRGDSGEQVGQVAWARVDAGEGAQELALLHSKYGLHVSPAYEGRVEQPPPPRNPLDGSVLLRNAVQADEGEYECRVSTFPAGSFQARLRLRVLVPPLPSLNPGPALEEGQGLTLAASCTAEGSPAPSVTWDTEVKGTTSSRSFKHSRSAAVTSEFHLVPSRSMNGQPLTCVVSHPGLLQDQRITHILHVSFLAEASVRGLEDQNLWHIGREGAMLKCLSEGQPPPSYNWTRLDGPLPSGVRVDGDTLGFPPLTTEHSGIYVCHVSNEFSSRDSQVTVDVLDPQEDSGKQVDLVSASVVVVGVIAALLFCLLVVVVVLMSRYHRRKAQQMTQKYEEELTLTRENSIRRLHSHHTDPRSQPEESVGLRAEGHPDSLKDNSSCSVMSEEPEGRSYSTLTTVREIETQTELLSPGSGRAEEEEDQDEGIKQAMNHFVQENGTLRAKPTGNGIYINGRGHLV
# ASSAY EXPLANATION: flow cytometry, NCI-H1781 cells (low endogenous nectin-4)
Numbers only, as −log10 of the molar value.

Reference set (4 entries):
Field pEC50 (entry Ab6 (antibody, human IgG1, lambda, L234A L235A, V domains shown, Unconjugated antibody; also called Antibody 6; nectin-4 antibody Ab6) VH: QVQLVQSGAEVKKPGASVKVSCKASGYTFTGYYMHWVRQAPGQGLEWMGIINPSGGSTTYAQKFQGRVTMTRDTSTSTVYMELSSLRSEDTAVYYCARGRLGTYFDYWGQGTLVTVSS VL: SYVLTQPPSVSVAPGQTARITCGGNNIGSKSVHWYQQKPGQAPVLVVYDDSDRPSGIPERFSGSNSGNTATLTISRVEAGDEADYYCQVWDRSSDQVVFGGGTKLTVLG ) reads 10.52

Short answer for Ab5 (antibody, human IgG1, kappa, L234A L235A, V domains shown, Unconjugated antibody; also called Antibody 5; nectin-4 antibody Ab5) VH: QVQLVQSGAEVKKPGASVKVSCKASGYTFTSYYVHWVRQAPGQGLEWMGIINPSIISTSYAQKFQARVTMTRDTSTSTVYMELSSLRSEDTAVYYCARGLNFDAFDIWGQGTLVTVSS VL: DIQLTQSPSFLSASVGDRVTITCRASQGISSYLAWYQQKPGKAPKLLIYAASTLQSGVPSRFSGSGSGTEFTLTISSLQPEDFATYYCQQLNNYPFTFGQGTKVEIKR : pEC50 was 10.10

So, Ab8 (antibody, human IgG1, lambda, L234A L235A, V domains shown, Unconjugated antibody; also called Antibody 8; nectin-4 antibody Ab8) VH: QVQLVQSGAEVKKPGASVKVSCKASGYTFTSYYIHWVRQAPGQGLEWMGIINPISGRTSSAQKFQGRVTMTRDTSTSTVYMELSSLRSEDTAVYYCAKEGVGGELLRAFDIWGQGTLVTVSS VL: QSVLTQPPSVSEAPRQRVTISCSGSSSNIGNNAVNWYQQLPGKAPKLLIYYDDLLPSGVSDRFSGSKSGTSASLAISGLQSEDEADYYCAAWDDSLNGFVFGGGTKLTVLG ? Its pEC50 was 10.00

Record summary for enfortumab (antibody, V domains shown) VH: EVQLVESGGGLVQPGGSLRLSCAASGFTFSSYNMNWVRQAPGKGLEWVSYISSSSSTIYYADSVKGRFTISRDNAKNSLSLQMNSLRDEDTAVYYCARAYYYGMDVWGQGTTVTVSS VL: DIQMTQSPSSVSASVGDRVTITCRASQGISGWLAWYQQKPGKAPKFLIYAASTLQSGVPSRFSGSGSGTDFTLTISSLQPEDFATYYCQQANSFPPTFGGGTKVEIKR : reported pEC50 = 10.30

# input for lookup
For record Ab4 (antibody, human IgG1, kappa, L234A L235A, V domains shown, Unconjugated antibody; also called Antibody 4) VH: QVQLQESGPGLVKPSETLSLTCTVSGGSISGYYWSWIRQPPGKGLEWIGYIYYSGSTNYNPSLKSRVTISVDTSKNQFSLKLSSVTAADTAVYYCARLGIFFDAFDIWGQGTLVTVSS VL: DIQLTQSPSFLSASVGDRVTITCRASQGISSYLAWYQQKPGKAPKLLIYAASTLQSGVPSRFSGSGSGTEFTLTISSLQPEDFATYYCQQFNSYPWTFGQGTKVEIKR the listed pEC50 is 9.85
